Protocol summary: Hepatocyte intrinsic clearance assay (metabolic stability), human hepatocytes
Type: in vitro ADME
Assay setup: male, human, cryopreserved pooled hepatocytes, Human Hepatocytes, 1 μM test compound
Method: The liver is an important organ in the body for drug metabolism. This Example describes hepatocyte intrinsic clearance assays using both human and rat hepatocytes to evaluate the metabolic stability of the indole compounds disclosed herein. The parameters measured include t1/2 (half-life), CLint (intrinsic clearance), and EH (hepatic extraction ratio). […] The residual compound remaining (% R) was determined from LC-MS peak areas by comparison to the zero time point. […]
In this section we review reported hepatocyte CLint at 1 μM values for a set of compounds.
Your answer should be a plain number; it is taken to be in µL/min/1e6 cells.

Solved entries:
>>> print(df.to_string())
                                   compound        parameter_measured  quantitative_readout
0  CC[C@@H](O)c1nc(C(=O)c2c[nH]c3cc(F)ccc23)cs1  hepatocyte CLint at 1 μM                  21.5
1  CC[C@@H](O)c1csc(C(=O)c2c[nH]c3ccc(F)cc23)n1  hepatocyte CLint at 1 μM                  20.6
2  NC1(c2csc(C(=O)c3c[nH]c4cc(F)ccc34)n2)CC1  hepatocyte CLint at 1 μM                  4.96

Quick one: hepatocyte CLint at 1 μM for `O=C(c1nc(C2(O)CC2)cs1)c1c[nH]c2cc(F)ccc12` ?
25.3

Quick one: hepatocyte CLint at 1 μM for `CC[C@@H](N)c1csc(C(=O)c2c[nH]c3cc(F)ccc23)n1` ?
0.621

Quick one: hepatocyte CLint at 1 μM for `CC[C@H](N)c1csc(C(=O)c2c[nH]c3cc(F)ccc23)n1` ?
1.5

###

Protocol summary: In vivo pharmacokinetic studies in rats
Set-up: species or system SD rats
Assay setup: Sprague-Dawley (SD), rat, plasma, po, 10 mg/kg, rats, PO 10 mg/kg repeat dose, Day 5, Mean of 3 animals; read-out: Cmax
Protocol: This example describes pharmacokinetic (PK) studies of ARI-164, ARI-165, ARI-186, ARI-224, and ARI-226 in mice and rats. In the present studies, the test compounds were given to groups of mice and/or rats (N=3 in each group), intravenously (IV) at 2 mg/kg or orally (PO) at 10, 30, or 40 mg/kg. […] Plasma concentrations of the test compounds were determined by HPLC.
Parameter measured: Cmax (ng/mL)
Your answer should be a plain number; it is taken to be in ng/mL.

Quick one: Cmax for CC(C)(N)c1csc(C(=O)c2c[nH]c3cc(F)ccc23)n1 [ARI-226] ?
9.78

###

In this section we review reported log10 of half-life at 1 μM values for a set of compounds.
Protocol summary: Hepatocyte intrinsic clearance assay (metabolic stability), human hepatocytes
Assay type: in vitro ADME
Assay setup: male, human, cryopreserved pooled hepatocytes, Human Hepatocytes, 1 μM test compound
Please interpret these as log10 of half-life at 1 μM where half-life at 1 μM is in h.

Solved entries:
>>> print(df.to_string())
                                   compound  quantitative_readout
0  O=C(c1nc([C@H](O)C(F)(F)F)cs1)c1c[nH]c2cc(F)ccc12                 -0.52
1  O=C(c1nc([C@@H](O)C(F)(F)F)cs1)c1c[nH]c2cc(F)ccc12                  0.00
2  NC(c1csc(C(=O)c2c[nH]c3ccccc23)n1)C(F)(F)F (centres unmarked)                  1.66
3  CC[C@H](N)c1csc(C(=O)c2c[nH]c3cc(F)ccc23)n1                  0.90
4  CC[C@@H](O)c1nc(C(=O)c2c[nH]c3cc(F)ccc23)cs1                 -0.30

Quick one: log10 of half-life at 1 μM for `CC[C@H](O)c1nc(C(=O)c2c[nH]c3cc(F)ccc23)cs1` ?
-0.10

Quick one: log10 of half-life at 1 μM for `CC[C@@H](N)c1csc(C(=O)c2c[nH]c3cc(F)ccc23)n1` ?
1.27

Quick one: log10 of half-life at 1 μM for `CC[C@@H](N)c1csc(C(=O)c2c[nH]c3ccc(F)cc23)n1` ?
0.72

Quick one: log10 of half-life at 1 μM for `CC[C@H](O)c1csc(C(=O)c2c[nH]c3cc(F)ccc23)n1` ?
-0.15

Quick one: log10 of half-life at 1 μM for `N[C@@H](c1csc(C(=O)c2c[nH]c3cc(F)ccc23)n1)C(F)(F)F` ?
0.48
